- target-of-assay: T1, adenosine-binding antibody SMB0002hH-G1m3/SMB0002hL-k0a
- T1 construct: also called biotinylated SMB0002hH-G1m3/SMB0002hL-k0
- T1 sequence (VH, as listed by the source, chain 1 of 2): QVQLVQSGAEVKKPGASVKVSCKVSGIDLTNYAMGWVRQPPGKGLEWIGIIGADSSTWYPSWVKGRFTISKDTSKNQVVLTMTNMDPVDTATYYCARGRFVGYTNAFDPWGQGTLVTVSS
- T1 sequence (V domain, as listed by the source, chain 2 of 2): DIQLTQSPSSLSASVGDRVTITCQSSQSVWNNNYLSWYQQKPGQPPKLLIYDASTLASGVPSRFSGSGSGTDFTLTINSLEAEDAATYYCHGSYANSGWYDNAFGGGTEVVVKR
- assay-protocol: BLI (OctetHTX), target on streptavidin sensor, antibody 10 ug/mL, 30 C, with and without adenosine
readout: binding result

For orientation, consider the following solved cases.
SC032 (antibody, human IgG1, kappa, V domains shown, also called adenosine-clamping antibody SC032) VH: QVQLQQSGAEVKKPGSSVKVSCKASGGTFSSYAISWVRQAPGQGLEWMGRIIPILGIANYAQKFQGRVTITADKSTSTAYMELSSLRSEDTAVYYCAREGLTPYYYGSELGNGMDVWGQGTTVTVSS VL: DIQLTQSPSSLSTFVGDRVTITCRTSQNINSYLNWYQQKPGKAPKLLISTTSNLQSGVPSRFSGSGSGTDFTLTINNLQPEDFAIYYCQQTKSFPLTFGGGTKLEIKR ... binds
SC019 (antibody, human IgG1, lambda, V domains shown, also called adenosine-clamping antibody SC019) VH: EVQLVESGGGLVKPGGSLRLSCAASGFTFSDYYMSWIRQAPGKGLEWVSYISSSGSTIYYADSVKGRFTISRDNAKNSLYLQMNSLRAEDTAVYYCARASPNVNEGAFDIWGQGTMVTVSS VL: QSVLTQPPSMSAAPGQKVTISCSGSGSNIGSSYVSWYQQLPGKAPRLLIYDNNKQVSWVPDRFSGSKSGTSASLVISGLQTGDEADYYCGTWDRSLSAGVFGGGTKVTVLG ... binds
SC014 (antibody, human IgG1, lambda, V domains shown, also called adenosine-clamping antibody SC014) VH: EVQLVQSGGGLVQPGRSLRLSCAASGFTFDDYAMHWVRQAPGKGLEWVSGISWNSGSIGYADSVKGRFAISRDNAKNSLYLQMNSLRAEDTALYYCAKAWNDDAFDIWGQGTMVTVSS VL: QSVVTQPPSVSGAPGQRVTVSCTGSNSNIGAGYDVHWYQQLPGTAPKLLIYGSNNRPSGVPDRFSASRSGTSASLAITGLQAEDEAEYYCQTYDTGLSGPGVVFGGGTKVTVLS ... binds
SC016 (antibody, human IgG1, lambda, V domains shown, also called adenosine-clamping antibody SC016) VH: EVQLVQSGGGLVQPGRSLRLSCAASGFTFDNHAMHWVRQAPGKGLEWVSRINWNSGGIDYADSVKGRFTISRDNAKNSLYLQMNSLRAEDTALYYCVKDRGSGWYDAFDLWGQGTMVTVSS VL: SYELTQPPSVSVAPGQTTRIACGGDSVGSESVHWYQQRPGQAPVLVISYDSDRPSGIPERFSGSKSGNTATLTISRVEAGDEADYYCQVWNSASDHWVFGGGTKLTVLG ... binds

// moving on: another record for binding result
Lab note: SC048 (antibody, human IgG1, lambda, V domains shown, also called adenosine-clamping antibody SC048) VH: QVQLQESGGGVVQPGRSLRLSCAASGFTFSSYAMHWVRQAPGKGLEWVAVISYDGSNKYYADSVKGRFTISRDNSKNTLYLQMNSLRAEDTAVYYCAKGYSYGPGYFFDYWGQGTLVTVSS VL: SSELTQPPSVSVSPGQTANISCSADKLGGKYVSWYQQKPGQSPVLVMYQDKKRPSGIPERLSGSGSGNTATLTISGTQAMDEATYYCQTWDGRSLFFGGGTRLTVLS gave binding result of binds
